Examples of compounds with documented remaining activity at 20 µM follow.
System: human cathepsin L (Homo sapiens, UniProt P07711)
Construct: purchased Enzo Life Sciences, Lörrach, Germany
Sequence (P07711 114-333): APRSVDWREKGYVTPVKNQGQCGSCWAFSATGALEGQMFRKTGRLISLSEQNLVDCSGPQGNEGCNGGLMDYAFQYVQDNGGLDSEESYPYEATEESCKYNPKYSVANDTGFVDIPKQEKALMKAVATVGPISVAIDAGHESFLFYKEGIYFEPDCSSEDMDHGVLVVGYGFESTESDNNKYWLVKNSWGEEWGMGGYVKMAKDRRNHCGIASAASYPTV
Measurement Description: Cathepsin L inhibition assay (Cbz-Phe-Arg-pNA)
Assay type: biochemical
Condition Description: inhibitor not soluble at 20 µM; calculated for 20 µM from IC50 at two lower concentrations; read-out: Residual activity @ 20 µM (%) Cat L, approximated [e]

Ask: Form entry - test system: human cathepsin L (Homo sapiens, UniProt P07711); read-out: remaining activity at 20 µM; compound: O=C(NC(CC1CCCCC1)C(=O)NC(Cc1ccccc1)C(=O)O)Oc1ccc(NC(=O)C(Cc2ccccc2)Cc2ccccc2)c(Cl)c1 (centres unmarked) [Compound 31]
Result: 76%

New cases:
Ask: What reported remaining activity at 20 µM corresponds to CC(C)CC(NC(=O)Oc1ccc(NC(=O)C(c2ccccc2)c2ccccc2)c(Cl)c1)C(=O)N1CCCC1C(=O)O (centres unmarked) [Compound 28] on human cathepsin L (Homo sapiens, UniProt P07711)?
Result: 62%

Ask: Please tell me: remaining activity at 20 µM of CC(C)CC(NC(=O)Oc1ccc(Cl)c(NC(=O)C(c2ccccc2)c2ccccc2)c1)C(=O)N1CCCC1C(=O)O (centres unmarked) [Compound 22] , system human cathepsin L (Homo sapiens, UniProt P07711)?
Result: 59%

Ask: Give remaining activity at 20 µM (human cathepsin L (Homo sapiens, UniProt P07711)) of the following compound: O=C(NC(CC1CCCCC1)C(=O)NC(Cc1ccccc1)C(=O)O)Oc1ccc(NC(=O)C(c2ccccc2)c2ccccc2)c(Cl)c1 (centres unmarked) [Compound 30]
Result: 64%

Ask: # query: remaining activity at 20 µM | item CC(C)CC(NC(=O)Oc1ccc(NC(=O)C(c2ccccc2)c2ccccc2)c(Cl)c1)C(=O)NC(Cc1ccccc1)C(=O)O (centres unmarked) [Compound 29] | system: human cathepsin L (Homo sapiens, UniProt P07711)
Result: 70%

These measurements were taken from paper PMC12304826.
